Each recorded value in this set is attributed to patent US20050239784A1.

# TARGET: AKT3 (Homo sapiens)
# Sequence (Q9Y243 whole entry): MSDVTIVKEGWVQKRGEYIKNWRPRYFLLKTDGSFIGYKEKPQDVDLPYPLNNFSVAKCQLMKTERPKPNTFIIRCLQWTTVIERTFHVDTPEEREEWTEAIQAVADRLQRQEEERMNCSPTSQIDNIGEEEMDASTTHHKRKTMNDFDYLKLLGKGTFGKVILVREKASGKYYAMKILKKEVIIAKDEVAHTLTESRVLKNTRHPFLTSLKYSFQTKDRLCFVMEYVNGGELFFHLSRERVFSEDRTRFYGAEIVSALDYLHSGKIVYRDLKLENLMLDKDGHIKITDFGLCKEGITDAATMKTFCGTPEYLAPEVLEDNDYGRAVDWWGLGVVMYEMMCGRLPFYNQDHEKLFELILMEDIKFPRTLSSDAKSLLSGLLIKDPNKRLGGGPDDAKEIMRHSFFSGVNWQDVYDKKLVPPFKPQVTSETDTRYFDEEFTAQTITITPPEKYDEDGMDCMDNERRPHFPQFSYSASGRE
# ASSAY_INFO: cell-based
# CONDITIONS_USED: AKT cel (Ex. C.6): pIC50 values, MDA-MB 231 cells, phosphorylated MAPK read-out
pIC50: −log10 of the molar value.
In this section we review reported pIC50 values for a set of molecules.

CC(C)n1nc(-c2ccc(OS(=O)(=O)N(C)C)cc2)nc2c(=O)n(C)c(=O)nc1-2: < 6.00
CC(C)n1nc(-c2ccc(OCCCN3CCOCC3)cc2)nc2c(=O)n(C)c(=O)nc1-2: < 6.00
CC(C)n1nc(-c2ccc(CNCCc3cccnc3)cc2)nc2c(=O)n(C)c(=O)nc1-2: < 6.00

Now for the molecule whose pIC50 we want.
For the record "CC(C)n1nc(-c2ccc(CN3CCN(S(N)(=O)=O)CC3)cc2)nc2c(=O)n(C)c(=O)nc1-2" , what value of pIC50 is listed for AKT3 (Homo sapiens)?
< 5.52
